Values compiled from PubChem BioAssay (NCI).

system: SK-MEL-2 melanoma; assay: NCI-60 one-dose screen, 48 h; conditions: 10 µM
About 83,000 compounds went through this panel and 20% of them were active in at least one assay; those are over-represented in the sample as a whole. Calls of active or inactive are those of the source. The calls were made as follows: active = growth percent below 10; inactive = the rest.
Classes used: active, inactive

Compound	Discrete label
NC(=O)SCC(=O)NNc1ccccc1	inactive
CCN1/C(=C/C=C/C=C/c2sc3ccccc3[n+]2CC)Sc2ccccc21	active
CO[C@H](C(=O)[C@@H](O)[C@@H](C)O)[C@@H]1Cc2cc3cc(OC4CC(OC5CC(O)C(O)C(C)O5)C(O)C(C)O4)c(C)c(O)c3c(O)c2C(=O)[C@H]1OC1CC(OC2CC(OC3CC(C)(O)C(O)C(C)O3)C(O)C(C)O2)C(O)C(C)O1 (some centres undefined)	active
CCCCCC(C)c1ccc(O)c(C)c1 (centres undefined)	inactive

###

tested on: ACHN renal; assay: NCI-60 one-dose screen, 48 h; conditions: 10 µM
Compounds without any hit were thinned out: in the full panel of roughly 83,000, 20% have a hit. Calls of active or inactive are those of the source. Rule for the calls: active = growth percent below 10; inactive = the rest.
Classes used: y (active), n (inactive)

Molecule	Target of assay	Discrete label
N=S(c1ccccc1[N+](=O)[O-])c1ccccc1[N+](=O)[O-]	ACHN renal	y
COC(=O)C1C(O)C(C)C(O)C(C)C=C(C)C2=C3C(=C(C)C(=O)c4c(O)c(c(C)c(OC(C)=O)c43)NC(=O)C(C)=C/C=C\C(C)C(O)C(C)C1O)OCO2 (centres undefined)	ACHN renal	n
CCC(C)(C)c1cc(O)c(C(C)(C)CC)cc1O	ACHN renal	n
CCCCCCCCCCSC(=N)N	ACHN renal	n
CSC1SCC2C(=O)N(C)C(C(C)C)C(=O)OCC(NC(=O)c3cnc4ccccc4n3)C(=O)NC(C)C(=O)N(C)C1C(=O)N(C)C(C(C)C)C(=O)OCC(NC(=O)c1cnc3ccccc3n1)C(=O)NC(C)C(=O)N2C (centres undefined)	ACHN renal	y
COC1OCC(O)C(O)C1O (centres undefined)	ACHN renal	n
CCN(CC)c1ccc(NC(C(=O)c2ccccc2)c2ccccc2)cc1 (centres undefined)	ACHN renal	y
OC(CN1CCCC2CCCCC21)c1cc2ccccc2c2ccccc12 (centres undefined)	ACHN renal	n
O=c1ccn(C2CC(O)C(COC(c3ccccc3)(c3ccccc3)c3ccccc3)O2)c(=O)[nH]1 (centres undefined)	ACHN renal	n

###

test system: NCI-H23 lung; test: NCI-60 one-dose screen, 48 h (100 = growth as untreated, 0 = no growth, -100 = all killed); conditions: 10 µM
The panel holds about 83,000 compounds, 20% with a hit somewhere; the sample as a whole holds those more often. Activity calls are given as the source filed them. Rule for the calls: active = growth percent below 10; inactive = the rest.
The compounds listed here are annotated with their growth.
Parameter: growth

> print(dat)
                                   compound  parameter         obs.value
1          CCC(C)(C)c1cc(O)c(C(C)(C)CC)cc1O     growth  38.5% (inactive)
2            Cc1nc(N=C(N)N)nc2ccc3ccccc3c12     growth  27.6% (inactive)
3  OCC(O)C(O)C(O)C(/C=N/Nc1ccccc1)=N/Nc1ccccc1 (stereo not given)     growth  93.1% (inactive)
4           CCCCCCCCCCCC[N+](C)(C)Cc1ccccc1     growth  23.8% (inactive)
5                     Cc1cc(O)c(C(C)C)cc1Cl     growth   106% (inactive)

###

growth values by entry
system: OVCAR-3 ovarian; experiment: NCI-60 one-dose screen, 48 h (100 = growth as untreated, 0 = no growth, -100 = all killed); conditions: 10 µM
About 83,000 compounds went through this panel and 20% of them were active in at least one assay; those are over-represented in the sample as a whole. Calls of active or inactive are those of the source. The calls were made as follows: active = growth percent below 10; inactive = the rest. Where a SMILES comes first, the peptide text is derived from it. [ ]: non-standard residue; d: D form. ξ: configuration not given here. ξV = CC(C)C(N)C(=O)O

Compound	growth
O=C1C=CC(=CC=C2C=CN(CCCCCCCCCCCO)C=C2)C=C1	30.2% (inactive)
CC1=CC(C)=Nc2ccc(Cl)cc2N1	102% (inactive)
O=c1ccn(C2CC(O)C(COC(c3ccccc3)(c3ccccc3)c3ccccc3)O2)c(=O)[nH]1 (stereo unspecified)	102% (inactive)
CC(C)C(NC(=O)CN)C(=O)O (stereo unspecified) (H-Gly-[ξV]-OH)	112% (inactive)
CC(C)(C)CC(C)(C)c1ccc(OCCO)cc1	116% (inactive)
COc1c(O)cc2oc3cc(O)c(CC=C(C)C)c(O)c3c(=O)c2c1CC=C(C)C	46.1% (inactive)
CCCCCCCCCCSC(=N)N	67% (inactive)
CC(=O)Nc1cc(C)ccc1C	102% (inactive)
NNc1c2ccccc2nc2ccccc12	51.4% (inactive)
CCO/C=C1\SC(=S)N(c2cccc(O)c2)C1=O	102% (inactive)
CSC1SCC2C(=O)N(C)C(C(C)C)C(=O)OCC(NC(=O)c3cnc4ccccc4n3)C(=O)NC(C)C(=O)N(C)C1C(=O)N(C)C(C(C)C)C(=O)OCC(NC(=O)c1cnc3ccccc3n1)C(=O)NC(C)C(=O)N2C (stereo unspecified)	5.79% (active)
CCCCCC(C)c1ccc(O)c(C)c1 (stereo unspecified)	105% (inactive)
COc1cccc2c1C(=O)c1c(O)c3c(c(O)c1C2=O)C[C@@](O)(C(C)=O)C[C@@H]3OC1CC(N)C(O)C(C)O1 (stereo partly specified)	-1.56% (active)
OCC(O)C(O)C(O)C(/C=N/Nc1ccccc1)=N/Nc1ccccc1 (stereo unspecified)	90.4% (inactive)
CCCCCCCCCCCCCCCCCCOCC(COP(=O)([O-])OCC[N+](C)(C)C)OC (stereo unspecified)	95.9% (inactive)
N=S(c1ccccc1[N+](=O)[O-])c1ccccc1[N+](=O)[O-]	-58.8% (active)
O=[N+]([O-])C1=C(c2ccccc2)SC=C(c2ccccc2)S1	73.6% (inactive)
COc1cccc2c1C(=O)c1c(O)c3c(c(O)c1C2=O)C[C@@](O)(C(=O)CO)C[C@@H]3OC1CC(N)C(O)C(C)O1 (stereo partly specified)	10.2% (inactive)
O=C(O)COc1ccc(OCC(=O)O)cc1	16.7% (inactive)
CS(=O)(=O)OC1CC(n2ccc(=O)[nH]c2=O)OC1COC(c1ccccc1)(c1ccccc1)c1ccccc1 (stereo unspecified)	100% (inactive)
CCN1/C(=C/C=C/C=C/c2sc3ccccc3[n+]2CC)Sc2ccccc21	-64.1% (active)

###

tested on: NCI-H322M lung; assay: NCI-60 one-dose screen, 48 h (100 = growth as untreated, 0 = no growth, -100 = all killed); conditions: 10 µM
The panel holds about 83,000 compounds, 20% with a hit somewhere; the sample as a whole holds those more often.
In this section, each of the compounds is paired with its reported growth.

Compound	Target of assay	Measurement unit	growth
Clc1ccc(/C=C/c2ccccn2)c(Cl)c1	NCI-H322M lung	%	85.5
CC(C)(C)CC(C)(C)c1ccc(OCCO)cc1	NCI-H322M lung	%	115
CN1CCN(CCCN2c3ccccc3Sc3ccc(C(F)(F)F)cc32)CC1	NCI-H322M lung	%	69.7
CCN(CC)c1ccc(NC(C(=O)c2ccccc2)c2ccccc2)cc1 (configuration not stated)	NCI-H322M lung	%	82.9
CSC1SCC2C(=O)N(C)C(C(C)C)C(=O)OCC(NC(=O)c3cnc4ccccc4n3)C(=O)NC(C)C(=O)N(C)C1C(=O)N(C)C(C(C)C)C(=O)OCC(NC(=O)c1cnc3ccccc3n1)C(=O)NC(C)C(=O)N2C (configuration not stated)	NCI-H322M lung	%	9.51
Clc1cc(Cl)c(Cl)nn1	NCI-H322M lung	%	109
CC(=O)Nc1cc(C)ccc1C	NCI-H322M lung	%	96
CS(=O)(=O)OC1CC(n2ccc(=O)[nH]c2=O)OC1COC(c1ccccc1)(c1ccccc1)c1ccccc1 (configuration not stated)	NCI-H322M lung	%	89.1
CCCCCC(C)c1ccc(O)c(C)c1 (configuration not stated)	NCI-H322M lung	%	99.3
O=C1C=CC(=CC=C2C=CN(CCCCCCCCCCCO)C=C2)C=C1	NCI-H322M lung	%	92.4
COC(=O)C1C(O)C(C)C(O)C(C)C=C(C)C2=C3C(=C(C)C(=O)c4c(O)c(c(C)c(OC(C)=O)c43)NC(=O)C(C)=C/C=C\C(C)C(O)C(C)C1O)OCO2 (configuration not stated)	NCI-H322M lung	%	140
CO[C@H](C(=O)[C@@H](O)[C@@H](C)O)[C@@H]1Cc2cc3cc(OC4CC(OC5CC(O)C(O)C(C)O5)C(O)C(C)O4)c(C)c(O)c3c(O)c2C(=O)[C@H]1OC1CC(OC2CC(OC3CC(C)(O)C(O)C(C)O3)C(O)C(C)O2)C(O)C(C)O1 (some centres not stated)	NCI-H322M lung	%	5.87
Oc1ccc(N=Nc2ccccn2)c(O)c1	NCI-H322M lung	%	31.6
CC[N+](CC)=c1ccc2nc3c(cc(N)c4ccccc43)oc-2c1	NCI-H322M lung	%	-46.5
NNc1c2ccccc2nc2ccccc12	NCI-H322M lung	%	75.9
COc1c(O)cc2oc3cc(O)c(CC=C(C)C)c(O)c3c(=O)c2c1CC=C(C)C	NCI-H322M lung	%	83.6
CC(=O)OCC(OC(C)=O)C(OC(C)=O)C(OC(C)=O)C(OC(C)=O)C(/C=N/Nc1ccccc1)=N/Nc1ccccc1 (configuration not stated)	NCI-H322M lung	%	65
OC(CN1CCCC2CCCCC21)c1cc2ccccc2c2ccccc12 (configuration not stated)	NCI-H322M lung	%	49.4
O=C1C=C(O)c2ccccc2C1=O.[Ag]	NCI-H322M lung	%	99
NC(=O)SCC(=O)NNc1ccccc1	NCI-H322M lung	%	94.8
O=C(/C=C/c1ccccn1)c1ccccc1	NCI-H322M lung	%	88.8
COc1ccc(CC(=O)c2ccc(O)cc2O)cc1	NCI-H322M lung	%	122
